From: patent US20040121946A9

# systemName: DRB1*1501 (DR2w2β1) (Homo sapiens, UniProt P01903+P01911)
# experimentNotes: HLA class II peptide binding assay, purified HLA
# conditionContext: Table XIX, DR supermotif peptides; unit not given
resultType: DR2wB1 binding data
Respond numerically, and do not add a unit to the figure.

Some solved entries appear below for comparison.
CC[C@H](C)[C@H](NC(=O)[C@H](CCSC)NC(=O)[C@H](Cc1c[nH]c2ccccc12)NC(=O)[C@H](CS)NC(=O)[C@H](CCCCN)NC(=O)[C@@H](NC(=O)[C@H](CCSC)NC(=O)[C@@H](NC(=O)[C@H](CCSC)NC(=O)[C@H](Cc1ccc(O)cc1)NC(=O)[C@@H](NC(=O)[C@@H](N)CC(=O)O)C(C)C)[C@@H](C)CC)C(C)C)C(=O)N[C@@H](CC(=O)O)C(=O)N[C@@H](CO)C(=O)N[C@@H](CCC(=O)O)C(=O)O	0.0047
CSCC[C@H](NC(=O)[C@@H](NC(=O)[C@H](Cc1ccc(O)cc1)NC(=O)[C@H](C)NC(=O)[C@H](CCC(=O)O)NC(=O)[C@@H](N)CC(=O)O)C(C)C)C(=O)N[C@@H](C)C(=O)NCC(=O)N[C@H](C(=O)NCC(=O)N[C@@H](CO)C(=O)N1CCC[C@H]1C(=O)N[C@@H](Cc1ccc(O)cc1)C(=O)N[C@H](C(=O)N[C@@H](CO)C(=O)O)C(C)C)C(C)C	0.0029

The record that follows has no DR2wB1 binding data shown yet.
Query block: Bench note: what DR2wB1 binding data did CC[C@H](C)[C@H](NC(=O)[C@H](CCCNC(=N)N)NC(=O)CNC(=O)[C@H](CCCNC(=N)N)NC(=O)[C@@H](NC(=O)[C@@H](NC(=O)[C@H](CCC(N)=O)NC(=O)[C@H](CC(C)C)NC(=O)[C@H](CC(N)=O)NC(=O)[C@H](CCC(N)=O)NC(=O)[C@H](Cc1ccccc1)NC(=O)[C@@H](NC(=O)[C@H](CO)NC(=O)[C@@H](N)CC(C)C)C(C)C)C(C)C)[C@@H](C)CC)C(=O)N[C@@H](CC(C)C)C(=O)O show?
Result block: 0.0280

----------
# systemName: HLA-A*1101 (Homo sapiens, UniProt P04439, A114D/D185E/E176A/F33Y/L180Q/S129P/T187R)
# conditionContext: Table XXIII, HLA-A3 supermotif-bearing peptides
Where a SMILES comes first, the peptide text is derived from it. [ ]: non-standard residue; d: D form. Abu = CC[C@H](N)C(=O)O
# maps each entry to its pIC50
// scale note: pIC50 = -log10(conc_M); give the bare number

Query block: GET /values?readout=pIC50&item= CC[C@H](C)[C@H](N)C(=O)N[C@H](C(=O)N[C@@H](CCCCN)C(=O)NCC(=O)NCC(=O)N[C@H](C(=O)N[C@@H](CC(C)C)C(=O)N[C@H](C(=O)N[C@@H](CCC(N)=O)C(=O)N[C@@H](CCCCN)C(=O)O)[C@@H](C)CC)C(C)C)C(C)C
Result block: 6.99

Query block: Given CC[C@H](C)[C@H](N)C(=O)N[C@H](C(=O)N[C@@H](Cc1c[nH]c2ccccc12)C(=O)N[C@@H](CC(C)C)C(=O)NCC(=O)N[C@@H](CC(C)C)C(=O)N[C@@H](CCCNC(=N)N)C(=O)N[C@@H](CO)C(=O)N[C@@H](CC(C)C)C(=O)N[C@@H](CCCCN)C(=O)O)C(C)C , state its recorded pIC50.
Result block: 6.89

Query block: Given the molecule CC[C@H](C)[C@H](N)C(=O)N[C@H](C(=O)N[C@@H](Cc1c[nH]c2ccccc12)C(=O)N[C@@H](CCCCN)C(=O)N[C@@H](CC(=O)O)C(=O)N[C@H](C(=O)N[C@@H](Cc1ccccc1)C(=O)N[C@@H](Cc1c[nH]cn1)C(=O)N[C@@H](CCCCN)C(=O)O)[C@@H](C)CC)C(C)C , what is its reported pIC50?
Result block: 7.40

Query block: Quick check: pIC50 of CC[C@H](C)[C@H](NC(=O)[C@H](CC(=O)O)NC(=O)[C@H](CCCCN)NC(=O)[C@H](Cc1c[nH]c2ccccc12)NC(=O)[C@H](CC(C)C)NC(=O)[C@@H](NC(=O)[C@@H](N)[C@@H](C)O)C(C)C)C(=O)N[C@@H](Cc1ccccc1)C(=O)N[C@@H](Cc1c[nH]cn1)C(=O)N[C@@H](CCCNC(=N)N)C(=O)O ?
Result block: 6.54

Query block: What pIC50 value was documented for this molecule, CC(C)C[C@H](NC(=O)[C@H](CCC(N)=O)NC(=O)[C@H](CC(=O)O)NC(=O)[C@H](Cc1c[nH]c2ccccc12)NC(=O)[C@@H]1CCCN1C(=O)[C@@H](NC(=O)[C@@H](NC(=O)[C@@H](N)Cc1c[nH]cn1)[C@@H](C)O)C(C)C)C(=O)N[C@@H](Cc1ccccc1)C(=O)N[C@@H](CCCNC(=N)N)C(=O)O ?
Result block: 7.08

Query block: Give its pIC50 value. Item: CC[C@H](NC(=O)[C@H](CC(N)=O)NC(=O)[C@@H](NC(=O)[C@@H](N)CC)C(C)C)C(=O)N[C@@H](CO)C(=O)N[C@@H](CCC(N)=O)C(=O)N[C@@H](Cc1ccccc1)C(=O)N[C@@H](CC(C)C)C(=O)N[C@@H](CCCNC(=N)N)C(=O)O [Her2/neu.528.B1B4] (H-[Abu]VN[Abu]SQFLR-OH)
Result block: 7.10

----------
# systemName: DRB1*0301 (DR3) (Homo sapiens, UniProt P01903+P01911, A100K/A102G/A103R/A169T/F55Y/I96L/K41T/L162R/M171V/P40S/Q125H/Q178H/Q39Y/R42S/S66N/T106N/T262R/W38E/Y61H)
# Sequence (P01903 26-254 limits assumed, other chains not shown): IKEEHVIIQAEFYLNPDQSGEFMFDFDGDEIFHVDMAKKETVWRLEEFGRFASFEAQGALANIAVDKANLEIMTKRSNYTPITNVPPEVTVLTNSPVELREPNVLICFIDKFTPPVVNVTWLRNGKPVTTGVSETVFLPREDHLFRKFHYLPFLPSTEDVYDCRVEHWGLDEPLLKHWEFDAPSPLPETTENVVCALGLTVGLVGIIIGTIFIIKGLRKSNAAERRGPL
# experimentNotes: HLA class II peptide binding assay, purified HLA
# conditionContext: Table XIX, DR supermotif peptides; unit not given
resultType: DR3 binding data
Number only, no unit.

CC(C)C[C@H](NC(=O)[C@H](CCC(N)=O)NC(=O)[C@H](CC(=O)O)NC(=O)[C@H](Cc1c[nH]c2ccccc12)NC(=O)[C@@H]1CCCN1C(=O)[C@@H](NC(=O)[C@@H](NC(=O)[C@H](Cc1c[nH]cn1)NC(=O)[C@@H](N)C(C)C)[C@@H](C)O)C(C)C)C(=O)N[C@@H](Cc1ccccc1)C(=O)N[C@@H](CCCNC(=N)N)C(=O)N[C@@H](CC(N)=O)C(=O)N1CCC[C@H]1C(=O)N[C@@H](Cc1c[nH]cn1)C(=O)N[C@@H](CCC(N)=O)C(=O)O	0.0220

Query block: Look up DR3 binding data for this compound: CSCC[C@H](NC(=O)[C@H](CC(=O)O)NC(=O)[C@H](CC(=O)O)NC(=O)[C@H](CC(=O)O)NC(=O)[C@H](CCC(=O)O)NC(=O)[C@H](CC(C)C)NC(=O)[C@H](CC(C)C)NC(=O)[C@H](CO)NC(=O)[C@@H](N)CCCNC(=N)N)C(=O)NCC(=O)N[C@@H](CC(=O)O)C(=O)N[C@@H](CC(C)C)C(=O)N[C@H](C(=O)N[C@@H](CC(=O)O)C(=O)N[C@@H](C)C(=O)O)C(C)C
Result block: 0.0080

Query block: I'd like to know its DR3 binding data. The compound in question is CC(C)C[C@H](NC(=O)[C@H](CC(=O)O)NC(=O)[C@H](CCCNC(=N)N)NC(=O)[C@H](Cc1c[nH]cn1)NC(=O)[C@@H](NC(=O)[C@H](CC(C)C)NC(=O)[C@H](CCCNC(=N)N)NC(=O)[C@@H](N)C(C)C)C(C)C)C(=O)N[C@@H](C)C(=O)N[C@@H](C)C(=O)N[C@@H](CCCNC(=N)N)C(=O)N[C@@H](CC(N)=O)C(=O)N[C@H](C(=O)N[C@@H](CC(C)C)C(=O)N[C@H](C(=O)O)C(C)C)C(C)C
Result block: 0.3400

Query block: Consider the compound shown here: CC[C@H](C)[C@H](NC(=O)[C@H](CCSC)NC(=O)[C@H](Cc1ccc(O)cc1)NC(=O)[C@@H](NC(=O)[C@H](CC(=O)O)NC(=O)[C@@H](NC(=O)[C@@H](NC(=O)[C@H](CS)NC(=O)[C@@H](NC(=O)[C@@H]1CCCN1C(=O)[C@@H]1CCCN1C(=O)[C@@H](N)CCC(N)=O)[C@@H](C)CC)[C@@H](C)O)[C@@H](C)CC)C(C)C)C(=O)N[C@@H](CCSC)C(=O)N[C@H](C(=O)N[C@@H](CCCCN)C(=O)O)C(C)C What is its recorded DR3 binding data?
Result block: 0.0976

----------
# pIC50 annotations
# systemName: HLA-A*6801 (Homo sapiens, UniProt P04439, A269V/D185E/E176V/E277Q/E87N/F33Y/G231S/I121M/I166T/I218V/L180W/L300P/L318F/N151K/P208A/P217A/Q86R/R169H/T345S)
# conditionContext: Table XXIII, HLA-A3 supermotif-bearing peptides
Where a SMILES comes first, the peptide text is derived from it. [ ]: non-standard residue; d: D form. Abu = CC[C@H](N)C(=O)O
Scale explanation: pIC50 corresponds to minus log10 of a concentration expressed in moles per litre.

CC[C@H](C)[C@H](N)C(=O)N[C@H](C(=O)N[C@@H](CCCCN)C(=O)NCC(=O)NCC(=O)N[C@H](C(=O)N[C@@H](CC(C)C)C(=O)N[C@H](C(=O)N[C@@H](CCC(N)=O)C(=O)N[C@@H](CCCNC(=N)N)C(=O)O)[C@@H](C)CC)C(C)C)C(C)C	7.54
CC(C)[C@H](NC(=O)[C@@H](NC(=O)[C@@H](N)CCCNC(=N)N)[C@@H](C)O)C(=O)N[C@@H](CS)C(=O)N[C@@H](C)C(=O)NCC(=O)NCC(=O)N[C@@H](CS)C(=O)N[C@@H](C)C(=O)N[C@@H](CCCNC(=N)N)C(=O)O	6.49
CC[C@H](C)[C@H](N)C(=O)N[C@H](C(=O)N[C@@H](Cc1c[nH]c2ccccc12)C(=O)N[C@@H](CCCCN)C(=O)N[C@@H](CC(=O)O)C(=O)N[C@H](C(=O)N[C@@H](Cc1ccccc1)C(=O)N[C@@H](Cc1c[nH]cn1)C(=O)N[C@@H](CCCCN)C(=O)O)[C@@H](C)CC)C(C)C	6.75
CC[C@H](NC(=O)[C@H](CC(N)=O)NC(=O)[C@@H](NC(=O)[C@@H](N)CC)C(C)C)C(=O)N[C@@H](CO)C(=O)N[C@@H](CCC(N)=O)C(=O)N[C@@H](Cc1ccccc1)C(=O)N[C@@H](CC(C)C)C(=O)N[C@@H](CCCNC(=N)N)C(=O)O [Her2/neu.528.B1B4] (H-[Abu]VN[Abu]SQFLR-OH)	8.00
CC[C@H](C)[C@H](N)C(=O)N[C@H](C(=O)N[C@@H](Cc1c[nH]c2ccccc12)C(=O)N[C@@H](CC(C)C)C(=O)NCC(=O)N[C@@H](CC(C)C)C(=O)N[C@@H](CCCNC(=N)N)C(=O)N[C@@H](CO)C(=O)N[C@@H](CC(C)C)C(=O)N[C@@H](CCCCN)C(=O)O)C(C)C	7.92

Query block: Consider the compound CC(C)C[C@H](NC(=O)[C@H](Cc1ccccc1)NC(=O)[C@H](CCC(N)=O)NC(=O)[C@H](CO)NC(=O)[C@H](CS)NC(=O)[C@H](CC(N)=O)NC(=O)[C@@H](NC(=O)[C@@H](N)CS)C(C)C)C(=O)N[C@@H](CCCNC(=N)N)C(=O)O and give its measured pIC50.
Result block: 7.74

Query block: I would be grateful if you could share the reported pIC50 for CC(C)[C@H](NC(=O)[C@@H](N)[C@@H](C)O)C(=O)N[C@@H](CS)C(=O)N[C@@H](C)C(=O)NCC(=O)NCC(=O)N[C@@H](CS)C(=O)N[C@@H](C)C(=O)N[C@@H](CCCNC(=N)N)C(=O)O .
Result block: 7.08

Query block: Any idea what its pIC50 is? The compound is CC(C)C[C@H](NC(=O)[C@@H]1CCCN1C(=O)[C@@H](NC(=O)[C@H](C)N)C(C)C)C(=O)N[C@@H](CC(=O)O)C(=O)N[C@@H](CO)C(=O)N[C@H](C(=O)N[C@@H](Cc1ccccc1)C(=O)N[C@@H](Cc1ccc(O)cc1)C(=O)N[C@@H](CCCNC(=N)N)C(=O)O)[C@@H](C)O
Result block: 7.14
